Molecular target: human CGRP receptor (human, UniProt Q16602 23-461; O60894 27-148)
Sequence (Q16602 23-461, chain 1 of 2): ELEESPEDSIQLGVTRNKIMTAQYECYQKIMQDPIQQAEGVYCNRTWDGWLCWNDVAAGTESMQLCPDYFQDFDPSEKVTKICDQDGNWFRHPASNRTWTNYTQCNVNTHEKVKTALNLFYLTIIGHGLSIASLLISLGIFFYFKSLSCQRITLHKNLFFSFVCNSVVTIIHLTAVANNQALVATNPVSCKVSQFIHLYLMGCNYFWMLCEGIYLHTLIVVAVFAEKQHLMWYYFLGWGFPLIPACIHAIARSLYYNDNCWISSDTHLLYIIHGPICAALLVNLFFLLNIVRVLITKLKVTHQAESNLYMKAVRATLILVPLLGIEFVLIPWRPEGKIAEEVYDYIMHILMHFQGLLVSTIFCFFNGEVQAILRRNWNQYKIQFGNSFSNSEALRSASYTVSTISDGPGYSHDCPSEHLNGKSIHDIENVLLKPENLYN
Sequence (O60894 27-148, chain 2 of 2): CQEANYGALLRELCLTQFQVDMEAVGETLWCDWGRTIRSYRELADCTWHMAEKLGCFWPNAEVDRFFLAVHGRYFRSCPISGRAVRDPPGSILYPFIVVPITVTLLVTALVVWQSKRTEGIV
Assay: cell-based or functional assay
Assay Endpoint: % Relative Potency by Cell-Based Bioassay (%)
Give the number; % is assumed, so skip it.

Record Erenumab HIC-HPLC Pre-peak Fraction F1 (antibody, human IgG2, lambda, V domains shown, Asp105 isomerization 0.6%; Asp105 succinimide 0.2%; Asn102 deamidation ND; Leu195/Ser196 cleavage 10.9%; further cleavage sites Leu315/Thr316, Ser197/Val198, Leu192/Tyr193, Gly108/Tyr109, Asp105/Ser106) VH: QVQLVESGGGVVQPGRSLRLSCAASGFTFSSFGMHWVRQAPGKGLEWVAVISFDGSIKYSVDSVKGRFTISRDNSKNTLFLQMNSLRAEDTAVYYCARDRLNYYDSSGYYHYKYYGMAVWGQGTTVTVSS VL: QSVLTQPPSVSAAPGQKVTISCSGSSSNIGNNYVSWYQQLPGTAPKLLIYDNNKRPSGIPDRFSGSKSGTSTTLGITGLQTGDEADYYCGTWDSRLSAVVFGGGTKLTVLG , field % Relative Potency by Cell-Based Bioassay: 33
